System: patients with cerebral vasospasm
Test Name: Vasoactive medications tried on Applicant's patients with vasospasm, monitored by Transcranial Doppler (TCD), exam and symptoms
Particulars: human, in vivo
Property Label: headache

[[record]]
compound = "O=C(O)C(O)C(O)C(=O)O.Oc1ccc2c(c1)[C@@]13CCCC[C@@]1(O)[C@@H](C2)N(CC1CCC1)CC3 [Stadol, butorphanol tartrate]"
reading = "improved their headache"

[[record]]
compound = "CNS(=O)(=O)Cc1ccc2[nH]cc(CCN(C)C)c2c1 [Imitrex, sumatriptan succinate]"
reading = "improved their headache"

[[record]]
compound = "CN1C[C@H](C(=O)N[C@]2(C)O[C@@]3(O)[C@@H]4CCCN4C(=O)[C@H](Cc4ccccc4)N3C2=O)C[C@@H]2c3cccc4[nH]cc(c34)C[C@H]21 [DHE]"
reading = "improved their headache"

